# test.target: rat 5-HT7 receptor (Rattus norvegicus (Rat))
# test.protocol: r5-HT7 binding assay, competitive radioligand binding with [3H]5-CT
# condition.set: rat 5-HT7 receptor, HEK-293 membranes
Where a name gives a salt, the structure may show the parent alone.
Reported Ki values for a set of compounds
measured.quantity: Ki (nM)

{"compound": "CON=C1c2ccccc2CC1Oc1ccc(Cl)cc1OC1CNC1 (stereo not drawn)", "test.target": "rat 5-HT7 receptor (Rattus norvegicus (Rat))", "measured.quantity": "Ki", "data.value": 813}
{"compound": "Clc1ccc(OC2Cc3ccccc3C2)c(OC2CNC2)c1", "test.target": "rat 5-HT7 receptor (Rattus norvegicus (Rat))", "measured.quantity": "Ki", "data.value": 7}
{"compound": "C[C@@H](Oc1ccc(Cl)cc1OC1CCNCC1)c1cccc(C(F)(F)F)c1", "test.target": "rat 5-HT7 receptor (Rattus norvegicus (Rat))", "measured.quantity": "Ki", "data.value": 15}
{"compound": "CCC(Oc1ccc(Cl)cc1OC1CNC1)c1cccc(C(F)(F)F)c1 (racemic)", "test.target": "rat 5-HT7 receptor (Rattus norvegicus (Rat))", "measured.quantity": "Ki", "data.value": 230}
{"compound": "Fc1cccc(COc2ccc(Br)cc2OC2CN(c3ccccc3)C2)c1", "test.target": "rat 5-HT7 receptor (Rattus norvegicus (Rat))", "measured.quantity": "Ki", "data.value": 5000}
{"compound": "Clc1ccc(OCCOc2ccccc2)c(OC2CNC2)c1", "test.target": "rat 5-HT7 receptor (Rattus norvegicus (Rat))", "measured.quantity": "Ki", "data.value": 7}
{"compound": "CC(C)N1CC(Oc2cc(Br)ccc2OCc2cccc(Cl)c2)C1", "test.target": "rat 5-HT7 receptor (Rattus norvegicus (Rat))", "measured.quantity": "Ki", "data.value": 8}
{"compound": "Cc1ccc2c(c1)C(Oc1ccc(Cl)cc1OC1CNC1)CC2 (racemic)", "test.target": "rat 5-HT7 receptor (Rattus norvegicus (Rat))", "measured.quantity": "Ki", "data.value": 15}
{"compound": "Clc1cccc(C2(COc3ccc(Cl)cc3OC3CNC3)CCC2)c1", "test.target": "rat 5-HT7 receptor (Rattus norvegicus (Rat))", "measured.quantity": "Ki", "data.value": 138}
{"compound": "Clc1ccc2c(c1)C(Oc1ccc(Br)cc1OC1CNC1)CC2 (racemic)", "test.target": "rat 5-HT7 receptor (Rattus norvegicus (Rat))", "measured.quantity": "Ki", "data.value": 84}
{"compound": "Cc1nc(COc2ccc(Cl)cc2OC2CNC2)cs1", "test.target": "rat 5-HT7 receptor (Rattus norvegicus (Rat))", "measured.quantity": "Ki", "data.value": 83}
{"compound": "FC(F)(F)c1ccnc(COc2ccc(Cl)cc2OC2CNC2)c1", "test.target": "rat 5-HT7 receptor (Rattus norvegicus (Rat))", "measured.quantity": "Ki", "data.value": 97}
{"compound": "C[C@@H](Oc1ccc(C(F)(F)F)cc1OC1CNC1)c1cccc(C(F)(F)F)c1 (stereo in doubt)", "test.target": "rat 5-HT7 receptor (Rattus norvegicus (Rat))", "measured.quantity": "Ki", "data.value": 31}
{"compound": "C[C@H](Oc1ccc(Cl)cc1OC1CN(C)C1)c1cccc(C(F)(F)F)c1", "test.target": "rat 5-HT7 receptor (Rattus norvegicus (Rat))", "measured.quantity": "Ki", "data.value": 27}
{"compound": "FC(F)(F)c1ccc(COc2ccc(Cl)cc2OC2CCNCC2)o1 [Example 63, hydrochloride]", "test.target": "rat 5-HT7 receptor (Rattus norvegicus (Rat))", "measured.quantity": "Ki", "data.value": 7}
{"compound": "CC(Oc1ccc(Cl)cc1OC1CNC1)c1ccc(F)cc1 (racemic)", "test.target": "rat 5-HT7 receptor (Rattus norvegicus (Rat))", "measured.quantity": "Ki", "data.value": 43}
{"compound": "CSc1cccc(COc2ccc(Cl)cc2OC2CNC2)c1", "test.target": "rat 5-HT7 receptor (Rattus norvegicus (Rat))", "measured.quantity": "Ki", "data.value": 25}
{"compound": "Clc1ccc(O[C@@H]2CCNC2)c(OCc2ccccc2)c1", "test.target": "rat 5-HT7 receptor (Rattus norvegicus (Rat))", "measured.quantity": "Ki", "data.value": 920}
{"compound": "CC(Oc1ccc(Cl)cc1OC1CNC1)c1cccc(C(F)(F)F)c1 (stereo in doubt) [Example 101]", "test.target": "rat 5-HT7 receptor (Rattus norvegicus (Rat))", "measured.quantity": "Ki", "data.value": 5}
{"compound": "Fc1cccc(CCOc2ccc(Cl)cc2OC2CNC2)c1", "test.target": "rat 5-HT7 receptor (Rattus norvegicus (Rat))", "measured.quantity": "Ki", "data.value": 8}
{"compound": "Clc1ccc2c(c1)CC(Oc1ccc(Cl)cc1OC1CNC1)C2 (stereo not drawn)", "test.target": "rat 5-HT7 receptor (Rattus norvegicus (Rat))", "measured.quantity": "Ki", "data.value": 24}
{"compound": "CS(=O)(=O)c1cc(Cl)ccc1COc1ccc(Cl)cc1OC1CNC1", "test.target": "rat 5-HT7 receptor (Rattus norvegicus (Rat))", "measured.quantity": "Ki", "data.value": 9000}
{"compound": "CON=C(COc1ccc(Cl)cc1OC1CNC1)c1ccccc1", "test.target": "rat 5-HT7 receptor (Rattus norvegicus (Rat))", "measured.quantity": "Ki", "data.value": 76}
{"compound": "CC(Oc1ccc(Cl)cc1OC1CNC1)c1ccccc1 (racemic)", "test.target": "rat 5-HT7 receptor (Rattus norvegicus (Rat))", "measured.quantity": "Ki", "data.value": 40}
{"compound": "Clc1ccc(COc2ccc(Cl)cc2OC2CNC2)cc1 [Example 36, trifluoroacetate]", "test.target": "rat 5-HT7 receptor (Rattus norvegicus (Rat))", "measured.quantity": "Ki", "data.value": 15}
{"compound": "Clc1ccc(OCc2cc3ccccc3o2)c(OC2CNC2)c1", "test.target": "rat 5-HT7 receptor (Rattus norvegicus (Rat))", "measured.quantity": "Ki", "data.value": 25}
{"compound": "CCCN1CC(Oc2cc(F)ccc2OCc2cccc(Cl)c2)C1", "test.target": "rat 5-HT7 receptor (Rattus norvegicus (Rat))", "measured.quantity": "Ki", "data.value": 21}

---

Collected Ki values appear next to each entry.
# test.target: rat 5-HT7 receptor (Rattus norvegicus (Rat), UniProt P32305)
# Sequence (P32305 1-435): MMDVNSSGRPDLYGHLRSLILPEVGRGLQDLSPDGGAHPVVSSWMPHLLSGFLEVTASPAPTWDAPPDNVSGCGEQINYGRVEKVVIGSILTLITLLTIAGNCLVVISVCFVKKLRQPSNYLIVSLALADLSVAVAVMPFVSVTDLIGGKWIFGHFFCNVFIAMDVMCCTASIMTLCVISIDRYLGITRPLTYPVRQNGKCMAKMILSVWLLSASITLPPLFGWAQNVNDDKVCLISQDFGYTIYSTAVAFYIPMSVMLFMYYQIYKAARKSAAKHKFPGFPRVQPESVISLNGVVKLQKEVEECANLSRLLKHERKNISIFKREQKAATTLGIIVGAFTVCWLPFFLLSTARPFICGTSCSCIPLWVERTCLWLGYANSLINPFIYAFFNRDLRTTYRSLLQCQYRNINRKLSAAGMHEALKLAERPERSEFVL
# test.protocol: r5-HT7 binding assay, competitive radioligand binding with [3H]5-CT
# condition.set: rat 5-HT7, HEK-293 membranes
Structures can show the parent of a compound that is named as a salt.
measured.quantity: Ki

{"compound": "Clc1cccc(Oc2cc(Cl)ccc2O[C@H]2CCNC2)c1", "test.target": "rat 5-HT7 receptor (Rattus norvegicus (Rat), UniProt P32305)", "data.value": "> 10000 nM"}
{"compound": "CC1(Oc2cc(Br)ccc2OCc2cccc(C(F)(F)F)c2)CNC1", "test.target": "rat 5-HT7 receptor (Rattus norvegicus (Rat), UniProt P32305)", "data.value": "34 nM"}
{"compound": "Cc1ccccc1Oc1ccc(Cl)cc1OC1CNC1 [Example 259, trifluoroacetate]", "test.target": "rat 5-HT7 receptor (Rattus norvegicus (Rat), UniProt P32305)", "data.value": "460 nM"}
{"compound": "O=C(c1ccc2ccccc2c1)c1ccc(Cl)cc1OC1CNC1", "test.target": "rat 5-HT7 receptor (Rattus norvegicus (Rat), UniProt P32305)", "data.value": "72 nM"}
{"compound": "COc1cccc(C(=O)c2ccc(Br)cc2OC2CNC2)c1", "test.target": "rat 5-HT7 receptor (Rattus norvegicus (Rat), UniProt P32305)", "data.value": "39 nM"}
{"compound": "Clc1ccc(OCc2nc(C3CCC3)no2)c(OC2CNC2)c1", "test.target": "rat 5-HT7 receptor (Rattus norvegicus (Rat), UniProt P32305)", "data.value": "252 nM"}
{"compound": "C[C@@H]1NC[C@H]1Oc1cc(Br)ccc1OCc1cccc(F)c1 (racemic)", "test.target": "rat 5-HT7 receptor (Rattus norvegicus (Rat), UniProt P32305)", "data.value": "9 nM"}
{"compound": "Cc1ccc(Oc2cc(Cl)ccc2O[C@H]2CCNC2)cc1", "test.target": "rat 5-HT7 receptor (Rattus norvegicus (Rat), UniProt P32305)", "data.value": "> 10000 nM"}
{"compound": "FC(F)(F)c1ccc(COc2ccc(Br)cc2CC2CNC2)o1", "test.target": "rat 5-HT7 receptor (Rattus norvegicus (Rat), UniProt P32305)", "data.value": "3 nM"}
{"compound": "CC(C)N1CC(Oc2cc(Br)ccc2C(=O)c2ccc3c(c2)OCO3)C1", "test.target": "rat 5-HT7 receptor (Rattus norvegicus (Rat), UniProt P32305)", "data.value": "143 nM"}
{"compound": "CN1CC(Oc2cc(Br)ccc2C(=O)c2cccc(Cl)c2)C1", "test.target": "rat 5-HT7 receptor (Rattus norvegicus (Rat), UniProt P32305)", "data.value": "50 nM"}
{"compound": "CC1(Oc2cc(Br)ccc2OCc2ccc(C(F)(F)F)o2)CNC1", "test.target": "rat 5-HT7 receptor (Rattus norvegicus (Rat), UniProt P32305)", "data.value": "16 nM"}
{"compound": "Clc1ccc(Oc2ccc3ccccc3c2)c(OC2CNC2)c1", "test.target": "rat 5-HT7 receptor (Rattus norvegicus (Rat), UniProt P32305)", "data.value": "16 nM"}
{"compound": "Fc1ccc(Oc2ccc(Br)cc2OC2CNC2)cc1", "test.target": "rat 5-HT7 receptor (Rattus norvegicus (Rat), UniProt P32305)", "data.value": "20 nM"}
{"compound": "CN1CC[C@@H](Oc2ccc(Cl)cc2Oc2ccc(F)cc2)C1", "test.target": "rat 5-HT7 receptor (Rattus norvegicus (Rat), UniProt P32305)", "data.value": "660 nM"}
